test: Mouse pharmacokinetics, single oral dose; type: in vivo, CD-1 mice; conditions: female, CD-1, mouse; single 25 mg/kg po dose; 5 h; lung vs plasma; read-out: Mouse PK Clung/Cplasma at t = 5 h
Attribute: Kp at 5 h
// print number alone

SMILES ENTRY	Kp at 5 h
CCSc1ncc(CN2CCN(c3nc4ccc(C)cc4o3)CC2)cn1	0.55
CCSc1ncc(CN2CCN(c3nc4ccc(C#N)cc4o3)CC2)cn1	0.3
CCSc1ncc(CN2CCN(c3nc4cc(F)c(F)cc4o3)CC2)cn1	0.33
CCSc1ncc(CN2CCN(c3nc4ccc(Cl)cc4o3)CC2)cn1	0.36
CCSc1ncc(CN2CCN(c3nc4ccccc4o3)CC2)cn1	0.88

Kindly consider the entry below.
// query Quick check: Kp at 5 h of CCSc1ncc(CN2CCN(c3nc4cc(C(F)(F)F)ccc4o3)CC2)cn1 ?
// result 0.44

---

tested on: rv2390c′::GFP reporter Mtb strain; assay type: cell-based, Mycobacterium tuberculosis; conditions: 10 μM; 250 mM NaCl
MEASURE: rv2390c′::GFP reporter signal upon Mtb exposure to high [Cl−] (in words)

SMILES ENTRY	MEASURED RESULT
c1ccc2oc(N3CCN(Cc4cncnc4)CC3)nc2c1	lost the ability
COc1ncc(CN2CCN(c3nc4ccccc4o3)CC2)cn1	lost the ability

---

system: Mtb in J774 cells; assay: Mtb growth in J774 macrophage-like cells (mKO fluorescence); assay type: cell-based, Mycobacterium tuberculosis; details: compared to C6
MEASURE: Inhibition of Mtb growth in J774 cells phenotype

Use the examples below as a reference point.
SMILES ENTRY	MEASURED RESULT
CCSc1ncc(CN2CCN(c3nc4cc(F)c(F)cc4o3)CC2)cn1	Y
CCSc1ncc(CN2CCN(c3nc4ccc(Cl)cc4o3)CC2)cn1	Y
CCSc1ncc(CN2CCN(c3nc4cccc(C)c4o3)CC2)cn1	Y
CCSc1ncc(CN2CCN(c3nc4ccccc4o3)CC2)cn1	Y
CCSc1ncc(CN2CCN(c3nc4ccccc4[nH]3)CC2)cn1	Y
CCSc1ncc(CN2CCN(c3nc4c(C)cccc4o3)CC2)cn1	Y
CCSc1ncc(CN2CCN(c3nc4ccc(C)cc4o3)CC2)cn1	Y
CCSc1ncc(CN2CCN(c3nc4ccc(C(F)(F)F)cc4o3)CC2)cn1	Y
CCSc1ncc(CN2CCN(c3nc4c(F)cccc4o3)CC2)cn1	Y
CCSc1ncc(CNCCNc2nc3ccccc3o2)cn1	N

// query Form: Entry = CCSc1ncc(CN2CCN(c3nc4cc(C)ccc4o3)CC2)cn1 | System = Mtb in J774 cells | Inhibition of Mtb growth in J774 cells phenotype = ____
// result Y

// query Request: Inhibition of Mtb growth in J774 cells phenotype, test system Mtb in J774 cells, entry CCSc1ncc(CN2CCN(c3nc4cc(C(F)(F)F)ccc4o3)CC2)cn1
// result Y

// query Lookup: Inhibition of Mtb growth in J774 cells phenotype / Mtb in J774 cells / CCSc1ncc(CN2CCN(c3nc4cccc(Cl)c4o3)CC2)cn1
// result Y

// query Entry CCSc1ncc(CN2CCN(c3nc4cccc(F)c4o3)CC2)cn1 , system Mtb in J774 cells: what Inhibition of Mtb growth in J774 cells phenotype was measured?
// result Y

// query API: value(readout= Inhibition of Mtb growth in J774 cells phenotype, system= Mtb in J774 cells, query= CSc1ncc(CN2CCN(c3nc4ccccc4o3)CC2)cn1 )
// result Y

// query Entry CCSc1ccc(CN2CCN(c3nc4ccccc4o3)CC2)cc1 , system Mtb in J774 cells: what Inhibition of Mtb growth in J774 cells phenotype was measured?
// result Y

// query For the record c1ccc2oc(N3CCN(Cc4cncnc4)CC3)nc2c1 , what value of Inhibition of Mtb growth in J774 cells phenotype is listed for Mtb in J774 cells?
// result N

// query Give Inhibition of Mtb growth in J774 cells phenotype (Mtb in J774 cells) of the following compound: CCSc1ncc(CN2CCN(c3nc4c(Cl)cccc4o3)CC2)cn1
// result Y

// query Field: Inhibition of Mtb growth in J774 cells phenotype (Mtb in J774 cells). Entry: COc1ncc(CN2CCN(c3nc4ccccc4o3)CC2)cn1
// result N

---

Collected half-life values appear next to each entry.
experiment: Mouse liver microsomal stability; type: in vitro ADME; conditions: mouse liver microsomes; read-out: MLM t1/2
Your answer is read as min, so omit the unit and give the number.

SMILES ENTRY	MEASURE	MEASURED RESULT
CCSc1ncc(CN2CCN(c3nc4ccc(C#N)cc4o3)CC2)cn1	half-life	25.5
CCSc1ncc(CN2CCN(c3nc4ccc(Cl)cc4o3)CC2)cn1	half-life	54.3
CCSc1ncc(CN2CCN(c3nc4cc(F)c(F)cc4o3)CC2)cn1	half-life	39.8
CCSc1ncc(CN2CCN(c3nc4cc(C(F)(F)F)ccc4o3)CC2)cn1	half-life	32

// query Consider the compound shown here: CCSc1ncc(CN2CCN(c3nc4ccc(C)cc4o3)CC2)cn1 What is its recorded half-life?
// result 38.7

---

system: Mtb; assay: Mtb growth assay in cholesterol media (OD600); assay type: cell-based, Mycobacterium tuberculosis; details: compared to C6
MEASURE: Growth inhibition in cholesterol media phenotype

Solved cases (5 shown):
SMILES ENTRY	SYSTEM TESTED	MEASURED RESULT
CCSc1ccc(CN2CCN(c3nc4ccccc4o3)CC2)cc1	Mtb	Y
CCSc1ncc(CN2CCN(c3nc4ccccc4o3)CC2)cn1	Mtb	Y
CCSc1ncc(CN2CCN(c3nc4ccccc4s3)CC2)cn1	Mtb	Y
CCSc1ncc(CN2CCN(c3nc4ccccc4[nH]3)CC2)cn1	Mtb	Y
COc1ncc(CN2CCN(c3nc4ccccc4o3)CC2)cn1	Mtb	N

The record that follows has no Growth inhibition in cholesterol media phenotype shown yet.
// query Enter reported Growth inhibition in cholesterol media phenotype observed with Mtb for c1ccc2oc(N3CCN(Cc4cncnc4)CC3)nc2c1
// result N

---

assay: Mouse pharmacokinetics, single oral dose; assay type: in vivo, CD-1 mice; conditions: female, mouse; single 25 mg/kg po dose; plasma; CD-1 mice; read-out: Mouse PK AUC0-5h
Label scheme for AUC(0-t): lower than 40000 ng·h/mL is no, 40000 ng·h/mL and above is yes.

SMILES ENTRY	ASSIGNED CATEGORY
CCSc1ncc(CN2CCN(c3nc4ccc(Cl)cc4o3)CC2)cn1	yes
CCSc1ncc(CN2CCN(c3nc4ccc(C#N)cc4o3)CC2)cn1	yes
CCSc1ncc(CN2CCN(c3nc4cc(F)c(F)cc4o3)CC2)cn1	no
CCSc1ncc(CN2CCN(c3nc4cc(C(F)(F)F)ccc4o3)CC2)cn1	no

Let's switch to this compound now.
// query Textbook exercise: given the entry CCSc1ncc(CN2CCN(c3nc4ccc(C)cc4o3)CC2)cn1 , state whether its AUC(0-t) is greater than or equal to 40000 ng·h/mL.
// result no
